Reported logD values for the following compounds.
assay: log D, octanol/PBS distribution; assay type: physicochemical; details: 111In-labeled peptide
Non-standard residues stand in square brackets, D forms with d. Residues, ends and D or L forms follow the SMILES beside them. *: point of attachment. DOTA = O=C(O)CN1CCN(CC(=O)O)CCN(CC(=O)*)CCN(CC(=O)O)CC1; 1Nal = N[C@@H](Cc1cccc2ccccc12)C(=O)O; NMeNle = CCCC[C@H](NC)C(=O)O
Keep the answer to the number alone.

{"compound": "CCCC[C@@H](C(=O)N[C@@H](CC(=O)O)C(=O)N[C@@H](Cc1cccc2ccccc12)C(N)=O)N(C)C(=O)[C@H](Cc1c[nH]c2ccccc12)NC(=O)CNC(=O)[C@@H]1CCCN1C(=O)[C@H](Cc1ccc(O)cc1)NC(=O)[C@@H](CCC(=O)O)NC(=O)CN1CCN(CC(=O)O)CCN(CC(=O)O)CCN(CC(=O)O)CC1 [compound 2] ({DOTA}-[dE]YPGW[NMeNle]D[1Nal]-NH2)", "measureName": "logD", "observedResult": -1.75}

Lab note: measured logD of CCCC[C@@H](C(=O)N[C@@H](CC(=O)O)C(=O)N[C@@H](Cc1cccc2ccccc12)C(N)=O)N(C)C(=O)[C@H](Cc1c[nH]c2ccccc12)NC(=O)CNC(=O)[C@H](Cc1ccc(O)cc1)NC(=O)[C@@H]1CCCN1C(=O)[C@@H](CCC(=O)O)NC(=O)CN1CCN(CC(=O)O)CCN(CC(=O)O)CCN(CC(=O)O)CC1 [compound 1] ({DOTA}-[dE]PYGW[NMeNle]D[1Nal]-NH2) was -2.03

Memo: CCCC[C@@H](C(=O)N[C@@H](CC(=O)O)C(=O)N[C@@H](Cc1cccc2ccccc12)C(N)=O)N(C)C(=O)[C@H](Cc1c[nH]c2ccccc12)NC(=O)CNC(=O)[C@@H]1CCCN1C(=O)[C@H](Cc1ccc(O)cc1)NC(=O)[C@@H](CCC(=O)O)NC(=O)CN1CCN(CC(=O)O)CCN(CC(=O)O)CCN(CC(=O)O)CC1 [[^111In]In-2, metal not drawn] ({DOTA}-[dE]YPGW[NMeNle]D[1Nal]-NH2) , reported logD: -1.75

The recorded logD for CCCC[C@@H](C(=O)N[C@@H](CC(=O)O)C(=O)N[C@@H](Cc1cccc2ccccc12)C(N)=O)N(C)C(=O)[C@H](Cc1c[nH]c2ccccc12)NC(=O)[C@@H]1CCCN1C(=O)[C@H](Cc1ccc(O)cc1)NC(=O)[C@H](C)NC(=O)[C@@H](CCC(=O)O)NC(=O)CN1CCN(CC(=O)O)CCN(CC(=O)O)CCN(CC(=O)O)CC1 [[^111In]In-3, metal not drawn] ({DOTA}-[dE]AYPW[NMeNle]D[1Nal]-NH2) is -2.05

compound CCCC[C@@H](C(=O)N[C@@H](CC(=O)O)C(=O)N[C@@H](Cc1cccc2ccccc12)C(N)=O)N(C)C(=O)[C@H](Cc1c[nH]c2ccccc12)NC(=O)CNC(=O)[C@H](Cc1ccc(O)cc1)NC(=O)[C@@H]1CCCN1C(=O)[C@@H](CCC(=O)O)NC(=O)CN1CCN(CC(=O)O)CCN(CC(=O)O)CCN(CC(=O)O)CC1 [[^111In]In-1, metal not drawn] ({DOTA}-[dE]PYGW[NMeNle]D[1Nal]-NH2) , logD observed: -2.03

CCCC[C@@H](C(=O)N[C@@H](CC(=O)O)C(=O)N[C@@H](Cc1cccc2ccccc12)C(N)=O)N(C)C(=O)[C@H](Cc1c[nH]c2ccccc12)NC(=O)[C@@H]1CCCN1C(=O)[C@H](Cc1ccc(O)cc1)NC(=O)[C@H](C)NC(=O)[C@@H](CCC(=O)O)NC(=O)CN1CCN(CC(=O)O)CCN(CC(=O)O)CCN(CC(=O)O)CC1 [compound 3] ({DOTA}-[dE]AYPW[NMeNle]D[1Nal]-NH2) yielded logD of -2.05
